All figures here come from paper PMC2756588.

- study system: Bem1-1, P29366
- Sequence (P29366 55-141): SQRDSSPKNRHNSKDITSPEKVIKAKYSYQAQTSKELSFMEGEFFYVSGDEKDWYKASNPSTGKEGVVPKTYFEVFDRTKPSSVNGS
- method notes: SPOT array
- measurement context: median of control spots 4282
property measured: SPOT intensity
I'd appreciate a reply containing only the number, no unit.

Answered examples (5):
# binder, SPOT intensity
data = [
    ("GKLKHIPRRPYEIER", 0),
    ("KKIRLIFTYPSTVGR", 0),
    ("GAGERPRLVPRPINV", 3),
    ("RSLRKRPTSPSISGS", 0),
    ("NPTKSPPPPPSPSTM", 1),
]

Pending binder:
Find the recorded SPOT intensity belonging to `NQARKPFLLPATELS` and report it.
0
